target: TDG (thymine DNA glycosylase) (human, UniProt Q13569 1-410); experiment: EMSA; Hill 3.0; EMSA: 5 nM substrate, 100 mM NaCl, 2.5 mM MgCl2, 10 mM Tris-HCl pH 7.5, 5% glycerol, 30 min 30 C, 0.6% agarose 1x TBE 4 C; NMR: 0.1 M NaCl, 0.03 mM TCEP, 15 mM; details: protein: recombinant; tags: His tag (pET28a, TALON purified); label: 5'-FAM strand 1; blunt
Sequence (Q13569 whole entry): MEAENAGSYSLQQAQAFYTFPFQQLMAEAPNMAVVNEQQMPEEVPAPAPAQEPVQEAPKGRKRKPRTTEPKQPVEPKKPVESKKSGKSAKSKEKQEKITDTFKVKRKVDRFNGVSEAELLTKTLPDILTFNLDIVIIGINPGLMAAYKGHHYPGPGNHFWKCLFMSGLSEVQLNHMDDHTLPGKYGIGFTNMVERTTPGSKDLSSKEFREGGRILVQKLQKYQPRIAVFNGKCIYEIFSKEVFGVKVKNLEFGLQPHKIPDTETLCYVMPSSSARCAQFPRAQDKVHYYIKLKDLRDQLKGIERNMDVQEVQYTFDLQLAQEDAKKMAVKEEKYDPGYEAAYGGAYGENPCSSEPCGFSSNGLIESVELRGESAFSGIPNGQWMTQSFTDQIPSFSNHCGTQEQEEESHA
Readout Name: pKd
# pKd: negative log10 of molar concentration; output just the value

Prompt: GET /values?readout=pKd&item= D1-5fC (dsDNA, 5-formylcytosine at strand 1 pos 20) DNA 1: TGAGGATGTATATATCTGACGCGCCGGTGGAGC DNA 2: GCTCCACCGGCGCGTACGATATATACATCCTCA
Response: 7.25
